assay: log P determination by HPLC on reversed-phase column (EEC Directive 79/831 Annex V.A8); assay type: physicochemical; conditions: reversed-phase C18 HPLC column, reversed-phase column (C 18), 43° C., acidic range pH 2.3, 0.1% aqueous phosphoric acid/acetonitrile gradient
quantity.name: chromatographic logP

Consider the reported chromatographic logP for these molecules:
molecule	reported
O=C1CCC(c2ccc(-c3ccc(OC(F)(F)F)cc3)cc2)N1C(CO)c1ccccc1 (stereo not shown)	3.8
C=C(c1ccccc1)N1C(=O)CCC1c1ccc(-c2ccc(OC(F)(F)F)cc2)cc1 (stereo not shown)	4.35

[A] O=C1CCC(c2ccc(-c3ccc(OC(F)(F)F)cc3)cc2)N1C(CCl)c1ccccc1 (stereo not shown)
[B] O=C1CCC(c2ccc(-c3ccc(OC(F)(F)F)cc3)cc2)N1 (stereo not shown)
Q) Between the entries labeled A and B , whose measured chromatographic logP is lower? Lab log: write the label of the selected item as the result.
A) B
(B: 2.95, A: 4.78)

---

assay: log P determination by HPLC on reversed-phase column (EEC Directive 79/831 Annex V.A8); assay type: physicochemical; conditions: reversed-phase C18 HPLC column, reversed-phase column (C 18), 43° C., acidic range pH 2.3, 0.1% aqueous phosphoric acid/acetonitrile gradient
Readings of chromatographic logP for the listed compounds
I'd appreciate a reply containing only the number, no unit.

Consider the reported chromatographic logP for these compounds:
compound	reported
CC(C)(C)OC(=O)NC(CCC(=O)c1c(F)cccc1F)c1ccc(-c2ccc(OC(F)(F)F)cc2)cc1 (stereo not drawn)	5.18
Fc1cccc(F)c1C1=N[C@@H](c2ccc(-c3ccc(OC(F)(F)F)cc3)cc2)CC1	4.13

Switching to the query record.
CC(C)(C)OC(=O)N1C(=O)CCC1c1ccc(-c2ccc(OC(F)(F)F)cc2)cc1 (stereo not drawn) has a reported chromatographic logP of 4.32
